- assayed target: KDR (Homo sapiens, UniProt P35968)
- Sequence (P35968 20-1356): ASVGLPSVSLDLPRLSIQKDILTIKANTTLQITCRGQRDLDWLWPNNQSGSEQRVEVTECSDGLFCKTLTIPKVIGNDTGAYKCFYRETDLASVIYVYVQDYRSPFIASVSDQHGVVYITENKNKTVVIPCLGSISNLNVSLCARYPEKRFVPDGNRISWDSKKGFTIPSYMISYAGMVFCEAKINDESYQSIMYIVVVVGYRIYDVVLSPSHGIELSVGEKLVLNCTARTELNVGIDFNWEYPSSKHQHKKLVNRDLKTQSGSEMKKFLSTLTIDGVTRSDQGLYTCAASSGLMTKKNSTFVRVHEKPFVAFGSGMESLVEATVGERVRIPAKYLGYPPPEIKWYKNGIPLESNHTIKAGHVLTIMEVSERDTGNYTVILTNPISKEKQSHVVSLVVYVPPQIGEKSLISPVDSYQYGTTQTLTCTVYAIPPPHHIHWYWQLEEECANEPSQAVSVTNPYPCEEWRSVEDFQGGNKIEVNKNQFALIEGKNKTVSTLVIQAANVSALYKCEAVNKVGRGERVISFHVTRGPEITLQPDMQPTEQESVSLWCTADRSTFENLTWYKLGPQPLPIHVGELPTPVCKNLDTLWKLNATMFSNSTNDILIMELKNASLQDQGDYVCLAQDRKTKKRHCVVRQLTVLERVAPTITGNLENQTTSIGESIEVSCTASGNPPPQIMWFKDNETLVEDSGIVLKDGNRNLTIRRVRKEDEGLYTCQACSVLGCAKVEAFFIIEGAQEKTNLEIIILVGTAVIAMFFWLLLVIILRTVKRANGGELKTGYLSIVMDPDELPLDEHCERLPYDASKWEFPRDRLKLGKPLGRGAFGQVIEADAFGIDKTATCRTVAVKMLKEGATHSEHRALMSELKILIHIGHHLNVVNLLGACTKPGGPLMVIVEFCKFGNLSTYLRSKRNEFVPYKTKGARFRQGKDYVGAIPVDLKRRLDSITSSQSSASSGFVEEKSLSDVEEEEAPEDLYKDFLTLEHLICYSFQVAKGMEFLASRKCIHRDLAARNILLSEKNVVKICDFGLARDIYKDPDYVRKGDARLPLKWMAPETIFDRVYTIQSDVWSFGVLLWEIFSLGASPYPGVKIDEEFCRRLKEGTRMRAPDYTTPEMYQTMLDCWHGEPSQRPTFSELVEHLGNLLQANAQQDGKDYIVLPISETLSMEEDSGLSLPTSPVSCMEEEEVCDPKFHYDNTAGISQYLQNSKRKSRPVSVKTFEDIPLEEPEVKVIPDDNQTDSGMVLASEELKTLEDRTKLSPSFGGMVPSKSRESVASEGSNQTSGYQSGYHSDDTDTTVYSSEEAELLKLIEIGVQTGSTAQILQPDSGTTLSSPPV
- test name: Kinase Profiler, residual kinase activity
- Assay type: biochemical
- assay context: KDR; inhibitor at 500 nM; read-out: percentage of the remaining kinase activity
Threshold 20%. remaining activity at 0.5 µM below it: satisfied. remaining activity at 0.5 µM at it or above: not satisfied.

COC1C(N(C)Cc2ccc(-c3ccccc3)cc2)CC2OC1(C)n1c3ccccc3c3c4c(c5c6ccccc6n2c5c31)C(=O)NC4 (stereo not shown) [Compound 9]	not satisfied

Enquiry: Lab log: compare recorded remaining activity at 0.5 µM with 20%; is it strictly lower for COC1C(N(C)C(=O)C(N)Cc2cn(C(=O)OC(C)(C)C)c3ccccc23)CC2OC1(C)n1c3ccccc3c3c4c(c5c6ccccc6n2c5c31)C(=O)NC4 (stereo not shown) [Compound 2] ?
Return: not satisfied

Enquiry: Lab log: compare recorded remaining activity at 0.5 µM with 20%; is it strictly lower for COC1C(N(C)C(=O)C(N)CCC(=O)OC(C)(C)C)CC2OC1(C)n1c3ccccc3c3c4c(c5c6ccccc6n2c5c31)C(=O)NC4 (stereo not shown) [Compound 6] ?
Return: not satisfied

Enquiry: Lab log: compare recorded remaining activity at 0.5 µM with 20%; is it strictly lower for COC1C(N(C)C(=O)C(N)Cc2ccc(O)cc2)CC2OC1(C)n1c3ccccc3c3c4c(c5c6ccccc6n2c5c31)C(=O)NC4 (stereo not shown) [Compound 5] ?
Return: satisfied

Enquiry: Lab log: compare recorded remaining activity at 0.5 µM with 20%; is it strictly lower for COC1C(N(C)C(=O)C(N)Cc2c[nH]cn2)CC2OC1(C)n1c3ccccc3c3c4c(c5c6ccccc6n2c5c31)C(=O)NC4 (stereo not shown) [Compound 1] ?
Return: satisfied

Enquiry: Lab log: compare recorded remaining activity at 0.5 µM with 20%; is it strictly lower for COC1C(N(C)C(=O)C(N)CCC(=O)O)CC2OC1(C)n1c3ccccc3c3c4c(c5c6ccccc6n2c5c31)C(=O)NC4 (stereo not shown) [Compound 7] ?
Return: satisfied

Enquiry: Lab log: compare recorded remaining activity at 0.5 µM with 20%; is it strictly lower for COC1C(N(C)C(=O)C(N)Cc2ccc(OC(C)(C)C)cc2)CC2OC1(C)n1c3ccccc3c3c4c(c5c6ccccc6n2c5c31)C(=O)NC4 (stereo not shown) [Compound 4] ?
Return: not satisfied

* * *

remaining activity at 0.5 µM listing for selected compounds.
- assayed target: MAP2K1 (Homo sapiens)
- Construct: purchased Research Biology Corp. (http://www.reactionbiology.com)
- Sequence (Q02750 whole entry): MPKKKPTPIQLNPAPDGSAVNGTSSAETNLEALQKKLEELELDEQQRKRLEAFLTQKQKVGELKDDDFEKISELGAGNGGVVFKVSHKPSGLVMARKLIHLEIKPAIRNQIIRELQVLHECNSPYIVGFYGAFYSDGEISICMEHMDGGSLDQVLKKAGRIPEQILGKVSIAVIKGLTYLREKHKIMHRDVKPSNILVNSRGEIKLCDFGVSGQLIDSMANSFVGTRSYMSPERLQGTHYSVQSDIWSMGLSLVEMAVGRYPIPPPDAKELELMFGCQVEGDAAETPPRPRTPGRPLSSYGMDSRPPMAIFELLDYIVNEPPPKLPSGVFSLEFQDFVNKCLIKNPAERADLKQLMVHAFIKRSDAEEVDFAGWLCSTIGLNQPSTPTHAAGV
- test name: Kinase Profiler, residual kinase activity
- Assay type: biochemical
- assay context: MAP2K1; inhibitor at 500 nM; read-out: percentage of the remaining kinase activity
- Source text: Kinase Profiler services provided by […]. (http://www.reactionbiology.com) were used to analyze the data of the 9 type-S protein kinase inhibitors against the 40 types of protein kinases.

Enquiry: Looking for the measured remaining activity at 0.5 µM of COC1C(N(C)C(=O)C(N)Cc2ccc(O)cc2)CC2OC1(C)n1c3ccccc3c3c4c(c5c6ccccc6n2c5c31)C(=O)NC4 (stereo not drawn) [Compound 5] , can you help?
Return: 103%

Enquiry: Looking for the measured remaining activity at 0.5 µM of COC1C(N(C)C(=O)C(N)Cc2ccc(OC(C)(C)C)cc2)CC2OC1(C)n1c3ccccc3c3c4c(c5c6ccccc6n2c5c31)C(=O)NC4 (stereo not drawn) [Compound 4] , can you help?
Return: 110%

Enquiry: Looking for the measured remaining activity at 0.5 µM of COC1C(N(C)C(=O)C(N)CCC(=O)O)CC2OC1(C)n1c3ccccc3c3c4c(c5c6ccccc6n2c5c31)C(=O)NC4 (stereo not drawn) [Compound 7] , can you help?
Return: 74.1%
